Reported Alpha/Delta Ratio is given for each of the following compounds.
targetUnderTest: PI3Kα (Homo sapiens, UniProt P42336)
Construct: His tag (pFastbac HTb vector) (N); FLAG; made in house; host or cells: Sf21 insect cells (baculovirus)
Sequence (P42336 whole entry): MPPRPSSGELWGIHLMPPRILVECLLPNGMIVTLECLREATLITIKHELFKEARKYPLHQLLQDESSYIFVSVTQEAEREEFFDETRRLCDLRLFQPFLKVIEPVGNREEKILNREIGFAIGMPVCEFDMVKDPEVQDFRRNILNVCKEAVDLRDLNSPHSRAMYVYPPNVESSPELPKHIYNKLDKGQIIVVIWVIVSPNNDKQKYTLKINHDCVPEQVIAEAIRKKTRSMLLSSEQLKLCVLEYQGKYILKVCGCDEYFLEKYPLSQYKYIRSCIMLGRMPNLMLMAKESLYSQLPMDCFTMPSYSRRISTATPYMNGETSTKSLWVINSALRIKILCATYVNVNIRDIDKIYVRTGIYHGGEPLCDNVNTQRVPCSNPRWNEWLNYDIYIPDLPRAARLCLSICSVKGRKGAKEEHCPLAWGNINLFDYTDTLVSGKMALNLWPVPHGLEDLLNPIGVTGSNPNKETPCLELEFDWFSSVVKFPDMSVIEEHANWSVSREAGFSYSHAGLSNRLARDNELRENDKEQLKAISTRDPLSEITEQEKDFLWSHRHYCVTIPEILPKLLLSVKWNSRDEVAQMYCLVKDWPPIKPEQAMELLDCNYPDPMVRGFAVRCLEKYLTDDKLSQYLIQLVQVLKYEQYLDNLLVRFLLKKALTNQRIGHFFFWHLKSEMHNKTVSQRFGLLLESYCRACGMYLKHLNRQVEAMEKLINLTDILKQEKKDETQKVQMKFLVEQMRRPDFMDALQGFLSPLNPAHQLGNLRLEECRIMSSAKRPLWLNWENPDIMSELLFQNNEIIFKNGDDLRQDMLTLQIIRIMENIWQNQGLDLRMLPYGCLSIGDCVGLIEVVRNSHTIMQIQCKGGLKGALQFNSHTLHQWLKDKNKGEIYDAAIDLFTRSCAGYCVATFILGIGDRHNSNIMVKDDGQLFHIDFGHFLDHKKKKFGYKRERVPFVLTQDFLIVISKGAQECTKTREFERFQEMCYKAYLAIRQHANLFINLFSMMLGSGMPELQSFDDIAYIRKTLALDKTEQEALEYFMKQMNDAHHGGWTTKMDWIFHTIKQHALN
Sequence (P27986 whole entry partner): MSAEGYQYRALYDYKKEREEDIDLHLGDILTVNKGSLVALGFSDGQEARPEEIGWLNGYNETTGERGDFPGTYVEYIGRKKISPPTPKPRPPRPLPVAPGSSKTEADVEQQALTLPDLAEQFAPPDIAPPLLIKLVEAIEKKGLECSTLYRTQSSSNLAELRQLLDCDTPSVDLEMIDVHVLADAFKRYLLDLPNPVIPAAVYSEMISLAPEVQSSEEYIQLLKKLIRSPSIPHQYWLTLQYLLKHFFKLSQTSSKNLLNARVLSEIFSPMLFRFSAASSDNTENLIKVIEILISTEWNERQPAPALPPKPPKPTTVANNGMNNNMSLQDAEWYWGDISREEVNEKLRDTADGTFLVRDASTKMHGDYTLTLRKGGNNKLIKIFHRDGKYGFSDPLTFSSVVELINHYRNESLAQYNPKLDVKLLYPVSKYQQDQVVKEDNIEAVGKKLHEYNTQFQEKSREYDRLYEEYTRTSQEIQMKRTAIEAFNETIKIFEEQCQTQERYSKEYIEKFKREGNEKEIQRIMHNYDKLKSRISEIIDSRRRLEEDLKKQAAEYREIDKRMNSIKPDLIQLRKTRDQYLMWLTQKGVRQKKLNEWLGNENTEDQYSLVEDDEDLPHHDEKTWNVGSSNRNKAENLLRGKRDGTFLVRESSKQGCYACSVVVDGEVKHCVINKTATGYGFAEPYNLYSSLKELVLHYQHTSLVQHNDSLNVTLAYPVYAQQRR
assayOverview: Biochemical assay of PI3K potency and selectivity using 20 μM ATP, Alpha
assayConditions: 20 μM ATP; ratio of IC50 values; > = hypothetical ratio with 100 μM substituted for the missing IC50

> print(dat)
                                   compound  testvalue
1  COc1ccccc1-n1c(CSc2ncnc3[nH]cnc23)nc2ccccc2c1=O [Compound D-046]        >11
2   CCCCn1c(Cn2cnc3c(N)ncnc32)nc2ccccc2c1=O        >63
3  Nc1ncnc2c1ncn2Cc1nc2cccc(Cl)c2c(=O)n1-c1ccccc1-c1ccccc1        683
4  CC(=O)O.Nc1ncnc2c1ncn2Cc1nc2ccccc2c(=O)n1N1CCOCC1        >31
5  O=c1c2cc3ccccc3cc2nc(CSc2ncnc3[nH]cnc23)n1-c1ccccc1Cl         10

Enquiry: Query: Alpha/Delta Ratio; subject: Nc1ncnc2c1ncn2Cc1nc2cccc(Cl)c2c(=O)n1-c1ccccc1F
Return: >588

Enquiry: Look at this compound and give its reported Alpha/Delta Ratio. COc1ccccc1-n1c(CSc2ncnc3[nH]cnc23)nc2ccccc2c1=O [Compound D-036]
Return: >226

Origin of the recorded values: patent US20200061062A1
